# Assay remarks: Solubility assessment in solvents (visual)
# Type: physicochemical
# Condition details: tetrahydrofuran, 25 °C, organic solvent or mixture, thermodynamic from solid, Tetrahydrofuran, 5 vol, 25° C.; read-out: Observations from solubility assessment
Measured metric: solubility

# input What value of solubility has been reported for the following compound? O=C1C[C@H](c2cc(F)c(F)c(F)c2)CN1Cn1ncnc1Cl
# output > 200 mg/mL

---

# Assay remarks: Solubility assessment in solvents (visual)
# Type: physicochemical
# Condition details: toluene, 50 °C, organic solvent or mixture, thermodynamic from solid, Toluene, 5 vol, 50° C.; read-out: Observations from solubility assessment
Measured metric: solubility

# input What value of solubility has been reported for the following molecule? O=C1C[C@H](c2cc(F)c(F)c(F)c2)CN1Cn1ncnc1Cl [API]
# output > 200 mg/mL

---

# Assay remarks: Solubility assessment in solvents (visual)
# Type: physicochemical
# Condition details: 1,4-dioxane, 25 °C, organic solvent or mixture, thermodynamic from solid, 1,4-Dioxane, 5 vol, 25° C.; read-out: Observations from solubility assessment
Measured metric: solubility

# input What value of solubility has been reported for the following molecule? O=C1C[C@H](c2cc(F)c(F)c(F)c2)CN1Cn1ncnc1Cl [API]
# output > 200 mg/mL

---

# Assay remarks: Solubility assessment in solvents (visual)
# Format: physicochemical
# Condition details: water, 25 °C, water, thermodynamic from solid, Water, 10 vol, 25° C.; read-out: Observations from solubility assessment
Measured metric: solubility

# input What value of solubility has been reported for the following molecule? O=C1C[C@H](c2cc(F)c(F)c(F)c2)CN1Cn1ncnc1Cl
# output < 100 mg/mL

---

# Assay remarks: Solubility assessment in solvents (visual)
# Format: physicochemical
# Condition details: water, 50 °C, water, thermodynamic from solid, Water, 5 vol, 50° C.; read-out: Observations from solubility assessment
# Description: API (25 mg) was dispensed to a PLC vial with a magnetic stirrer. At room temperature an aliquot of solvent was added (5 vol.=125 μL) and stirred at 25° C. for at least 5 minutes. A visual assessment was made. Solutions were held at 25° C. and suspensions were placed at 50° C. with stirring for at least 5 minutes. […]
Measured metric: solubility

# input What value of solubility has been reported for the following molecule? O=C1C[C@H](c2cc(F)c(F)c(F)c2)CN1Cn1ncnc1Cl [API]
# output < 200 mg/mL

---

# Assay remarks: Solubility assessment in solvents (visual)
# Format: physicochemical
# Condition details: diethyl ether, 25 °C, organic solvent or mixture, thermodynamic from solid, Diethyl ether, 10 vol, 25° C.; read-out: Observations from solubility assessment
# Experimental: API (25 mg) was dispensed to a PLC vial with a magnetic stirrer. At room temperature an aliquot of solvent was added (5 vol.=125 μL) and stirred at 25° C. for at least 5 minutes. A visual assessment was made. Solutions were held at 25° C. and suspensions were placed at 50° C. with stirring for at least 5 minutes. […]
Measured metric: solubility

# input What value of solubility has been reported for the following compound? O=C1C[C@H](c2cc(F)c(F)c(F)c2)CN1Cn1ncnc1Cl [API]
# output < 100 mg/mL

---

# Assay remarks: Solubility assessment in solvents (visual)
# Assay type: physicochemical
# Condition details: TBME, 25 °C, organic solvent or mixture, thermodynamic from solid, TBME, 5 vol, 25° C.; read-out: Observations from solubility assessment
# Procedure: API (25 mg) was dispensed to a PLC vial with a magnetic stirrer. At room temperature an aliquot of solvent was added (5 vol.=125 μL) and stirred at 25° C. for at least 5 minutes. A visual assessment was made. Solutions were held at 25° C. and suspensions were placed at 50° C. with stirring for at least 5 minutes. […]
Measured metric: solubility

# input What value of solubility has been reported for the following compound? O=C1C[C@H](c2cc(F)c(F)c(F)c2)CN1Cn1ncnc1Cl
# output < 200 mg/mL

---

# Assay remarks: Solubility assessment in solvents (visual)
# Type: physicochemical
# Condition details: 2-methyl-1-propanol, 25 °C, organic solvent or mixture, thermodynamic from solid, 2-methyl-1-propanol, 5 vol, 25° C.; read-out: Observations from solubility assessment
# Experimental: API (25 mg) was dispensed to a PLC vial with a magnetic stirrer. At room temperature an aliquot of solvent was added (5 vol.=125 μL) and stirred at 25° C. for at least 5 minutes. A visual assessment was made. Solutions were held at 25° C. and suspensions were placed at 50° C. with stirring for at least 5 minutes. […]
Measured metric: solubility

# input What value of solubility has been reported for the following molecule? O=C1C[C@H](c2cc(F)c(F)c(F)c2)CN1Cn1ncnc1Cl
# output < 200 mg/mL

---

# Assay remarks: Solubility assessment in solvents (visual)
# Format: physicochemical
# Condition details: water, 25 °C, water, thermodynamic from solid, Water, 5 vol, 25° C.; read-out: Observations from solubility assessment
Measured metric: solubility

# input What value of solubility has been reported for the following molecule? O=C1C[C@H](c2cc(F)c(F)c(F)c2)CN1Cn1ncnc1Cl
# output < 200 mg/mL

---

# Assay remarks: Solubility assessment in solvents (visual)
# Format: physicochemical
# Condition details: IPA:water (9:1 v/v), 50 °C, organic solvent or mixture, thermodynamic from solid, IPA:Water (9:1 v/v), 5 vol, 50° C.; read-out: Observations from solubility assessment
Measured metric: solubility

# input What value of solubility has been reported for the following compound? O=C1C[C@H](c2cc(F)c(F)c(F)c2)CN1Cn1ncnc1Cl
# output > 200 mg/mL

---

# Assay remarks: Solubility assessment in solvents (visual)
# Format: physicochemical
# Condition details: water, 50 °C, water, thermodynamic from solid, Water, 10 vol, 50° C.; read-out: Observations from solubility assessment
# Protocol: API (25 mg) was dispensed to a PLC vial with a magnetic stirrer. At room temperature an aliquot of solvent was added (5 vol.=125 μL) and stirred at 25° C. for at least 5 minutes. A visual assessment was made. Solutions were held at 25° C. and suspensions were placed at 50° C. with stirring for at least 5 minutes. […]
Measured metric: solubility

# input What value of solubility has been reported for the following molecule? O=C1C[C@H](c2cc(F)c(F)c(F)c2)CN1Cn1ncnc1Cl [API]
# output < 100 mg/mL

---

# Assay remarks: Solubility assessment in solvents (visual)
# Type: physicochemical
# Condition details: diethyl ether, 25 °C, organic solvent or mixture, thermodynamic from solid, Diethyl ether, 50 vol, 25° C.; read-out: Observations from solubility assessment
Measured metric: solubility

# input What value of solubility has been reported for the following compound? O=C1C[C@H](c2cc(F)c(F)c(F)c2)CN1Cn1ncnc1Cl
# output > 20 mg/mL

---

# Assay remarks: Solubility assessment in solvents (visual)
# Assay type: physicochemical
# Condition details: water, 50 °C, water, thermodynamic from solid, Water, 50 vol, 50° C.; read-out: Observations from solubility assessment
Measured metric: solubility

# input What value of solubility has been reported for the following molecule? O=C1C[C@H](c2cc(F)c(F)c(F)c2)CN1Cn1ncnc1Cl
# output < 20 mg/mL

---

# Assay remarks: Solubility assessment in solvents (visual)
# Format: physicochemical
# Condition details: TBME, 50 °C, organic solvent or mixture, thermodynamic from solid, TBME, 5 vol, 50° C.; read-out: Observations from solubility assessment
Measured metric: solubility

# input What value of solubility has been reported for the following molecule? O=C1C[C@H](c2cc(F)c(F)c(F)c2)CN1Cn1ncnc1Cl
# output < 200 mg/mL

---

# Assay remarks: Solubility assessment in solvents (visual)
# Format: physicochemical
# Condition details: 2-propanol, 50 °C, organic solvent or mixture, thermodynamic from solid, 2-Propanol, 5 vol, 50° C.; read-out: Observations from solubility assessment
Measured metric: solubility

# input What value of solubility has been reported for the following compound? O=C1C[C@H](c2cc(F)c(F)c(F)c2)CN1Cn1ncnc1Cl [API]
# output > 200 mg/mL

---

# Assay remarks: Solubility assessment in solvents (visual)
# Type: physicochemical
# Condition details: IPA:water (9:1 v/v), 25 °C, organic solvent or mixture, thermodynamic from solid, IPA:Water (9:1 v/v), 5 vol, 25° C.; read-out: Observations from solubility assessment
# Experimental: API (25 mg) was dispensed to a PLC vial with a magnetic stirrer. At room temperature an aliquot of solvent was added (5 vol.=125 μL) and stirred at 25° C. for at least 5 minutes. A visual assessment was made. Solutions were held at 25° C. and suspensions were placed at 50° C. with stirring for at least 5 minutes. […]
Measured metric: solubility

# input What value of solubility has been reported for the following compound? O=C1C[C@H](c2cc(F)c(F)c(F)c2)CN1Cn1ncnc1Cl
# output < 200 mg/mL

---

# Assay remarks: Solubility assessment in solvents (visual)
# Assay type: physicochemical
# Condition details: ethyl acetate, 25 °C, organic solvent or mixture, thermodynamic from solid, Ethyl acetate, 5 vol, 25° C.; read-out: Observations from solubility assessment
Measured metric: solubility

# input What value of solubility has been reported for the following compound? O=C1C[C@H](c2cc(F)c(F)c(F)c2)CN1Cn1ncnc1Cl
# output > 200 mg/mL

Cited source for all entries: patent US20240132478A1
